# reported IC50; entries follow
Target of assay: human type 1 glycine transporter (GlyT1) (Homo sapiens, UniProt P48067)
Construct: T98G cells (glioma cells) expressing human type 1 glycine transporter (GlyT1) were used; endogenous in cells; host or cells: T98G cells (human glioma cells)
Assay notes: Glycine uptake inhibition experiment ([3H] glycine uptake in T98G cells expressing GlyT1)
Format: cell-based
Method: Glycine Uptake Inhibition Experiment A glycine uptake experiment was conducted in accordance with the method published in Neuron, 8, 927-935, 1992. In the experiment, T98G cells (glioma cells) expressing human type 1 glycine transporter (GlyT1) were used. The T98G cells were seeded in a 96-well plate at 2.0×10^4 cells/well and cultured overnight in a CO2 incubator. […] The glycine content in the cells was determined by measuring the radioactivity in the cell lysate with a liquid scintillation counter. […]
# answer = value followed by unit

Compound	Measurement kind	Value reported
C[C@H](O)c1cccc2c1C(F)(F)C(=O)N2Cc1ccc(Br)nc1	IC50	51 nM

Result for COc1nc(Cl)ccc1CN1C(=O)C(F)(F)c2c([C@H](C)O)cccc21 , tested on human type 1 glycine transporter (GlyT1) (Homo sapiens, UniProt P48067), IC50: 63 nM

Result for COc1cc(CN2C(=O)C(F)(F)c3c([C@H](C)O)cccc32)ncc1Cl , tested on human type 1 glycine transporter (GlyT1) (Homo sapiens, UniProt P48067), IC50: 32 nM

Result for C[C@H](O)c1cccc2c1C(F)(F)C(=O)N2Cc1ccc(Cl)c(C#N)n1 , tested on human type 1 glycine transporter (GlyT1) (Homo sapiens, UniProt P48067), IC50: 6.9 nM

Result for C[C@H](O)c1cccc2c1C(F)(F)C(=O)N2Cc1cnc(Cl)cn1 , tested on human type 1 glycine transporter (GlyT1) (Homo sapiens, UniProt P48067), IC50: 110 nM

Result for O=C1N(Cc2ccc(F)cn2)c2cccc(C(O)C(F)F)c2C1(F)F (single isomer, unassigned) , tested on human type 1 glycine transporter (GlyT1) (Homo sapiens, UniProt P48067), IC50: 280 nM

Result for C[C@H](O)c1cccc2c1C(F)(F)C(=O)N2Cc1cncc(OC(F)F)c1 , tested on human type 1 glycine transporter (GlyT1) (Homo sapiens, UniProt P48067), IC50: 79 nM

Result for C[C@H](O)c1cccc2c1C(F)(F)C(=O)N2Cc1cncc(C2CC2)c1 , tested on human type 1 glycine transporter (GlyT1) (Homo sapiens, UniProt P48067), IC50: 95 nM

Result for COc1cc(Cl)ncc1CN1C(=O)C(F)(F)c2c([C@H](C)O)cccc21 , tested on human type 1 glycine transporter (GlyT1) (Homo sapiens, UniProt P48067), IC50: 140 nM

Result for N#Cc1nc(CN2C(=O)C(F)(F)c3c(C(O)C(F)F)cccc32)ccc1F (single isomer, unassigned) , tested on human type 1 glycine transporter (GlyT1) (Homo sapiens, UniProt P48067), IC50: 9.1 nM

Result for Cn1c(=O)c(CN2C(=O)C(F)(F)c3c(C(O)C(F)F)cccc32)nc2ccccc21 (single isomer, unassigned) , tested on human type 1 glycine transporter (GlyT1) (Homo sapiens, UniProt P48067), IC50: 62 nM

Result for C[C@H](O)c1cccc2c1C(F)(F)C(=O)N2Cc1ccc(F)c(Br)n1 , tested on human type 1 glycine transporter (GlyT1) (Homo sapiens, UniProt P48067), IC50: 1.7 nM

Result for C[C@H](O)c1cccc2c1C(F)(F)C(=O)N2Cc1ccc(Cl)nn1 , tested on human type 1 glycine transporter (GlyT1) (Homo sapiens, UniProt P48067), IC50: 110 nM

Result for C[C@H](O)c1cccc2c1C(F)(F)C(=O)N2Cc1ncccc1Br , tested on human type 1 glycine transporter (GlyT1) (Homo sapiens, UniProt P48067), IC50: 85 nM

Result for O=C1N(Cc2cncc(Cl)c2)c2c(F)ccc(C(O)C(F)F)c2C1(F)F (single isomer, unassigned) [Compound 253] , tested on human type 1 glycine transporter (GlyT1) (Homo sapiens, UniProt P48067), IC50: 47 nM

Result for C[C@H](O)c1cccc2c1C(F)(F)C(=O)N2Cc1ccc(F)c(Cl)n1 , tested on human type 1 glycine transporter (GlyT1) (Homo sapiens, UniProt P48067), IC50: 2.9 nM
